biological target: N-acetylated-alpha-linked acidic dipeptidase 2 (Homo sapiens, UniProt Q9Y3Q0); assay: Displacement of [177Lu]LU-PSMA-617 from human recombinant GCPIII assessed as dissociation constant by fluorescence polarization assay
Sequence (Q9Y3Q0 whole entry): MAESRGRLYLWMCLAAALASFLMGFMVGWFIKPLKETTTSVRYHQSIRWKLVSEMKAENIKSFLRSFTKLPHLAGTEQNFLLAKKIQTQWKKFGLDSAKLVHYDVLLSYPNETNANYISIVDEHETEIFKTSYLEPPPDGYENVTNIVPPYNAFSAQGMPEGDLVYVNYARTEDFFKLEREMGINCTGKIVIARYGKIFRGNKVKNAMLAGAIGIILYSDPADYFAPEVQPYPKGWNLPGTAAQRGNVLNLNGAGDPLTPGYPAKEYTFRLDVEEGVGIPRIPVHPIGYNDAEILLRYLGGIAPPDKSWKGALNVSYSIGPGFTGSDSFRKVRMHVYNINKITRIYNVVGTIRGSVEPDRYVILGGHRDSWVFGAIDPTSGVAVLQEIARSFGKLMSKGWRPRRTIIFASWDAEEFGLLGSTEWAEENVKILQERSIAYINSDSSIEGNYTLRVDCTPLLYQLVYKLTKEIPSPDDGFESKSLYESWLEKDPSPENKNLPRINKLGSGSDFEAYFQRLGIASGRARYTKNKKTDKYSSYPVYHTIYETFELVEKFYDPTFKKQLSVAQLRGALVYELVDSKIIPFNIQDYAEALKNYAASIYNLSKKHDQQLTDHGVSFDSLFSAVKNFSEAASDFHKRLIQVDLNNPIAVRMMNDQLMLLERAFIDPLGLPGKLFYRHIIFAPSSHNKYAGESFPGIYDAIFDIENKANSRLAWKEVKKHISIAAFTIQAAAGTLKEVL
Exercise: state measured pKd for each of the compounds provided.
Lab note — pKd values are minus log10 of concentrations in M.

// pKd lookup, compound = O=C(NCCCC[C@H](NC(=O)[C@@H]1C[C@@H](NC(=O)c2c[nH]nn2)CN1C(=O)c1c[nH]nn1)C(=O)Nc1c[nH]nn1)c1c[nH]nn1 , result: 6.47

// pKd lookup, compound = NCCCC[C@H](NC(=O)[C@@H]1C[C@@H](NC(=O)c2c[nH]nn2)CN1C(=O)c1cnoc1C1CC1)C(=O)O , result: 4.89

// pKd lookup, compound = O=C(NC[C@H](NC(=O)[C@@H]1C[C@@H](NC(=O)c2c[nH]nn2)CN1C(=O)c1cnoc1C1CC1)C(=O)O)c1c[nH]nn1 , result: 8.10

// pKd lookup, compound = CC(=O)NC[C@H](NC(=O)[C@@H]1C[C@@H](NC(=O)c2c[nH]nn2)CN1C(=O)c1cnoc1C1CC1)C(=O)O , result: 5.70

// pKd lookup, compound = CC(=O)NC[C@H](NC(=O)[C@@H]1C[C@@H](NC(=O)c2c[nH]nn2)CN1C(=O)c1c[nH]nn1)C(=O)O , result: 7.17

// pKd lookup, compound = CC(=O)NCCCC[C@H](NC(=O)[C@@H]1C[C@@H](NC(=O)c2c[nH]nn2)CN1C(=O)c1cnoc1C1CC1)C(=O)O , result: 7.39

* * *

Target: UniProtKB P97321
Sequence (P97321 whole entry): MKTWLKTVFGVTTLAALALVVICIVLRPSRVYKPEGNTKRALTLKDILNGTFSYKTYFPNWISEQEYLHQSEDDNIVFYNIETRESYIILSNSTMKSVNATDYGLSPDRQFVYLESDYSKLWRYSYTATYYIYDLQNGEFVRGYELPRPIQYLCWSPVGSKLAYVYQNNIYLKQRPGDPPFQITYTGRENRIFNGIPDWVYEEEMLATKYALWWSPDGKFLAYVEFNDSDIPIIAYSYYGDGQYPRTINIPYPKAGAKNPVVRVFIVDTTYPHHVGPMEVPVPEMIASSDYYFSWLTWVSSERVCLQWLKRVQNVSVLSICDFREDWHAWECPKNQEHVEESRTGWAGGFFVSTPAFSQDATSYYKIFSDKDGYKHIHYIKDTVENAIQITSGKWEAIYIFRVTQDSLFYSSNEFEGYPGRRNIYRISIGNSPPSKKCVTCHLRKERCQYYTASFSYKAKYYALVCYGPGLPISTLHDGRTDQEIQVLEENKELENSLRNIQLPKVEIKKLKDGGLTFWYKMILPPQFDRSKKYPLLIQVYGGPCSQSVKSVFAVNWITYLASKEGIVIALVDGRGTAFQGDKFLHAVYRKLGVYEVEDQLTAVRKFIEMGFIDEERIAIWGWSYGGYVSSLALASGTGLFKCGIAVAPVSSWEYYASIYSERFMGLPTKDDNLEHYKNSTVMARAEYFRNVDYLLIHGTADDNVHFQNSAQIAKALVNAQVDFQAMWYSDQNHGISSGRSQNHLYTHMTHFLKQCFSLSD
pKd: −log10 of the molar value.
TEST_READOUT: pKd

// pKd lookup, molecule = O=C(N[C@@H]1C[C@@H](C(=O)N[C@@H](CCCCNC(=S)Nc2ccc3c(c2)C(=O)OC32c3ccc(O)cc3Oc3cc(O)ccc32)C(=O)O)N(C(=O)c2cnoc2C2CC2)C1)c1c[nH]nn1 , result: < 6.15

* * *

Exercise: state measured Kd for each of the molecules provided.
biological target: N-acetylated-alpha-linked acidic dipeptidase 2 (Homo sapiens); test: Displacement of [177Lu]LU-PSMA-617 from human recombinant GCPIII assessed as dissociation constant by fluorescence polarization assay
Respond with the figure and its unit, in that order.

// Kd lookup, molecule = NCCCC[C@H](NC(=O)[C@@H]1C[C@@H](NC(=O)c2c[nH]nn2)CN1C(=O)c1c[nH]nn1)C(=O)O , result: 17000 nM

// Kd lookup, molecule = O=C(NCCCC[C@H](NC(=O)[C@@H]1C[C@@H](NC(=O)c2c[nH]nn2)CN1C(=O)c1cnoc1C1CC1)C(=O)O)c1c[nH]nn1 , result: 12 nM

// Kd lookup, molecule = O=C(NC[C@H](NC(=O)[C@@H]1C[C@@H](NC(=O)c2c[nH]nn2)CN1C(=O)c1c[nH]nn1)C(=O)O)c1c[nH]nn1 , result: 1.5 nM

// Kd lookup, molecule = O=C(CCOCCOCCOCCOCCOCCOCCOCCOCCOCCOCCC(=O)NCCCC[C@H](NC(=O)[C@@H]1C[C@@H](NC(=O)c2cnn[nH]2)CN1C(=O)c1cnoc1C1CC1)C(=O)O)NCCCC[C@H](NC(=O)[C@@H]1C[C@@H](NC(=O)c2cnn[nH]2)CN1C(=O)c1cnoc1C1CC1)C(=O)O , result: 505 nM

// Kd lookup, molecule = CC(=O)NCCCC[C@H](NC(=O)[C@@H]1C[C@@H](NC(=O)c2c[nH]nn2)CN1C(=O)c1cnoc1C1CC1)C(=O)Nc1c[nH]nn1 , result: 3200 nM

// Kd lookup, molecule = O=C(NCCCCNC(=O)NCCCC[C@H](NC(=O)[C@@H]1C[C@@H](NC(=O)c2c[nH]nn2)CN1C(=O)c1cnoc1C1CC1)C(=O)O)NCCCC[C@H](NC(=O)[C@@H]1C[C@@H](NC(=O)c2c[nH]nn2)CN1C(=O)c1cnoc1C1CC1)C(=O)O , result: 53 nM

* * *

target: N-acetylated-alpha-linked acidic dipeptidase 2 (Homo sapiens, UniProt Q9Y3Q0); assay: Binding affinity to human recombinant GCPIII assessed as dissociation constant by fluorescence polarization assay
Exercise: state measured Kd for each of the compounds provided.
Your answer should be a plain number; it is taken to be in nM.

For the compound O=C(N[C@@H]1C[C@@H](C(=O)NCCCCCCNC(=S)Nc2ccc3c(c2)C(=O)OC32c3ccc(O)cc3Oc3cc(O)ccc32)N(C(=O)c2cnoc2C2CC2)C1)c1c[nH]nn1 , the measured Kd on N-acetylated-alpha-linked acidic dipeptidase 2 (Homo sapiens, UniProt Q9Y3Q0) was 7

For the compound O=C(N[C@@H]1C[C@@H](C(=O)N[C@H](CCCCNC(=S)Nc2ccc3c(c2)C(=O)OC32c3ccc(O)cc3Oc3cc(O)ccc32)C(=O)O)N(C(=O)c2cnoc2C2CC2)C1)c1c[nH]nn1 , the measured Kd on N-acetylated-alpha-linked acidic dipeptidase 2 (Homo sapiens, UniProt Q9Y3Q0) was 23

For the compound COC(=O)[C@H](CCCCNC(=S)Nc1ccc2c(c1)C(=O)OC21c2ccc(O)cc2Oc2cc(O)ccc21)NC(=O)[C@@H]1C[C@@H](NC(=O)c2c[nH]nn2)CN1C(=O)c1cnoc1C1CC1 , the measured Kd on N-acetylated-alpha-linked acidic dipeptidase 2 (Homo sapiens, UniProt Q9Y3Q0) was 12

* * *

target: UniProt P02769; experiment: Binding affinity to bovine serum albumin by fluorescence polarization assay
Sequence (P02769 whole entry): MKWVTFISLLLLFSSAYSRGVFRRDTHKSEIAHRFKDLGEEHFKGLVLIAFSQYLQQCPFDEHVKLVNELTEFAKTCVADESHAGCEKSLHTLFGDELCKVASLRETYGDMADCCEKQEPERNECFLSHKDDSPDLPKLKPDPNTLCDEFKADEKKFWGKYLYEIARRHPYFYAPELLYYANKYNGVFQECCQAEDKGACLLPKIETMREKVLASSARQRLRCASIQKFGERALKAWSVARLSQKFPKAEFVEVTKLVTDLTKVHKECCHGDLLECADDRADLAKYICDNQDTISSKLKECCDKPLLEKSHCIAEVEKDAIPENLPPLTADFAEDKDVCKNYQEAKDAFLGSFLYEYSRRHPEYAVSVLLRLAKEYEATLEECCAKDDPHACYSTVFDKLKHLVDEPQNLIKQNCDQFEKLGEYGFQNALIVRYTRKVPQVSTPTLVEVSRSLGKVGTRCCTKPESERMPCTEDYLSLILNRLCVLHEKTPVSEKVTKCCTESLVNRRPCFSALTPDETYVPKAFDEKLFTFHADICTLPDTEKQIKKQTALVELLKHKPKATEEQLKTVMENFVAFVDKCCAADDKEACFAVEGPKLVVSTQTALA
TEST_READOUT: pKd
Lab note — pKd values are minus log10 of concentrations in M.

// pKd lookup, compound = O=C(N[C@@H]1C[C@@H](C(=O)N[C@@H](CCCCNC(=S)Nc2ccc3c(c2)C(=O)OC32c3ccc(O)cc3Oc3cc(O)ccc32)C(=O)O)N(C(=O)c2cnoc2C2CC2)C1)c1c[nH]nn1 , result: 5.35

* * *

molecular target: Glutamate carboxypeptidase 2 (Homo sapiens); assay: Displacement of [177Lu]LU-PSMA-617 from human recombinant PSMA assessed as dissociation constant by fluorescence polarization assay
Sequence (Q04609 whole entry): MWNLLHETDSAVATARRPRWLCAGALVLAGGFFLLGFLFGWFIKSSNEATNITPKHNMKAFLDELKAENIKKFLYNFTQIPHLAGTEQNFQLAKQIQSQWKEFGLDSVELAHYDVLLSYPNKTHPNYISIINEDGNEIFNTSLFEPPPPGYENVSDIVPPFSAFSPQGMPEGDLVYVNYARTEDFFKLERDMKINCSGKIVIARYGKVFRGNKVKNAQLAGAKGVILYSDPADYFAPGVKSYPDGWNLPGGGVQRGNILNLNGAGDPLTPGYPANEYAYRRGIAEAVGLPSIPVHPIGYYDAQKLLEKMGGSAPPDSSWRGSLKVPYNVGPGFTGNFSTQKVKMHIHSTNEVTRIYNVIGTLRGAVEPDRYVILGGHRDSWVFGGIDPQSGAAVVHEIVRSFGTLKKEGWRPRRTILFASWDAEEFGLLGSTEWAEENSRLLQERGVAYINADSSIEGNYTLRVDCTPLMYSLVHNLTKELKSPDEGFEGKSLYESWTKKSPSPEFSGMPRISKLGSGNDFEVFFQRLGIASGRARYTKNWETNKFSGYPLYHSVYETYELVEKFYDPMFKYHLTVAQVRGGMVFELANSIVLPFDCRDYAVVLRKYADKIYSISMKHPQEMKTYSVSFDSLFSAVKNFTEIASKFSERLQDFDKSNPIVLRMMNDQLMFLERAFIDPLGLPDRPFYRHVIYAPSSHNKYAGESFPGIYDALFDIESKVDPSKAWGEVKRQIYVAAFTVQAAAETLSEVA
pKd: −log10 of the molar value.
Exercise: state measured pKd for each of the compounds provided.

// pKd lookup, compound = O=C(N[C@@H]1C[C@@H](C(=O)O)N(C(=O)c2cnoc2C2CC2)C1)c1c[nH]nn1 , result: < 4.70

// pKd lookup, compound = CC(=O)NCCCC[C@H](NC(=O)[C@@H]1C[C@@H](NC(=O)c2c[nH]nn2)CN1C(=O)c1cnoc1C1CC1)C(=O)Nc1c[nH]nn1 , result: < 4.70

// pKd lookup, compound = NCCCC[C@H](NC(=O)[C@@H]1C[C@@H](NC(=O)c2c[nH]nn2)CN1C(=O)c1cnoc1C1CC1)C(=O)O , result: < 4.70

// pKd lookup, compound = O=C(NCCCC[C@H](NC(=O)[C@@H]1C[C@@H](NC(=O)c2c[nH]nn2)CN1C(=O)c1c[nH]nn1)C(=O)Nc1c[nH]nn1)c1c[nH]nn1 , result: < 4.70

// pKd lookup, compound = O=C(NC[C@H](NC(=O)[C@@H]1C[C@@H](NC(=O)c2c[nH]nn2)CN1C(=O)c1cnoc1C1CC1)C(=O)O)c1c[nH]nn1 , result: 5.89

// pKd lookup, compound = O=C(NCCCCNC(=O)NCCCC[C@H](NC(=O)[C@@H]1C[C@@H](NC(=O)c2c[nH]nn2)CN1C(=O)c1cnoc1C1CC1)C(=O)O)NCCCC[C@H](NC(=O)[C@@H]1C[C@@H](NC(=O)c2c[nH]nn2)CN1C(=O)c1cnoc1C1CC1)C(=O)O , result: 4.89

// pKd lookup, compound = NC[C@H](NC(=O)[C@@H]1C[C@@H](NC(=O)c2c[nH]nn2)CN1C(=O)c1c[nH]nn1)C(=O)O , result: < 4.70

// pKd lookup, compound = CC(=O)NCCCC[C@H](NC(=O)[C@@H]1C[C@@H](NC(=O)c2c[nH]nn2)CN1C(=O)c1cnoc1C1CC1)C(=O)O , result: < 4.70

// pKd lookup, compound = O=C(CCOCCOCCOCCOCCOCCOCCOCCOCCOCCOCCC(=O)NCCCC[C@H](NC(=O)[C@@H]1C[C@@H](NC(=O)c2cnn[nH]2)CN1C(=O)c1cnoc1C1CC1)C(=O)O)NCCCC[C@H](NC(=O)[C@@H]1C[C@@H](NC(=O)c2cnn[nH]2)CN1C(=O)c1cnoc1C1CC1)C(=O)O , result: < 4.70
